Tested on: HCI-024 (organoid from a breast cancer xenograft)
PROTOCOL: CTG-3D luminescence at 96 h relative to day-0 seeding control (ratio to day 0); higher = more growth / less cytotoxicity; PDxO 3D drug screen, 96 h, CTG-3D normalised to day-0 seeding control.
COND: 10 µM; days in culture: 122
Below is a list of entries, each paired with its recorded CTG-3D luminescence at 96 h value.
# answer = number (no unit)

Worked cases, answers included:
| COMPOUND STRUCTURE | CTG-3D luminescence at 96 h |
| --- | --- |
| COc1cc2c(Oc3ccc4[nH]c(C)cc4c3F)ncnc2cc1OCCCN1CCCC1 | 0.0558 |
| Cc1nc(-c2cn3c(n2)-c2ccc(-c4cnn(C(C)(C)C(N)=O)c4)cc2OCC3)n(C(C)C)n1 | 1.81 |
| O=C(c1ccc(F)c(F)c1Nc1ccc(I)cc1F)N1CC(O)([C@@H]2CCCCN2)C1 | 0.979 |

Okay, now this molecule:
Respond only with CTG-3D luminescence at 96 h recorded for `CCc1c2c(nc3ccc(O)cc13)-c1cc3c(c(=O)n1C2)COC(=O)[C@]3(O)CC` 0.192

---

Test system: HCI-010 (organoid from a breast cancer xenograft)
PROTOCOL: CTG-3D luminescence at 96 h relative to day-0 seeding control (ratio to day 0); higher = more growth / less cytotoxicity; PDxO 3D drug screen, 96 h, CTG-3D normalised to day-0 seeding control.
COND: 12.5 pM; days in culture: 65
EXPERIMENTAL ENDPOINT: CTG-3D luminescence at 96 h
Give your answer as a number; write no unit.

| COMPOUND STRUCTURE | CTG-3D luminescence at 96 h |
| --- | --- |
| O=C(/C=C/c1cccnc1)NCCCCC1CCN(C(=O)c2ccccc2)CC1 | 1.59 |

Determine its reported CTG-3D luminescence at 96 h: `Cc1cc(Nc2ncnc3ccc(NC4=NC(C)(C)CO4)cc23)ccc1Oc1ccn2ncnc2c1` 1.6

For the compound `O=C(c1ccc(F)c(F)c1Nc1ccc(I)cc1F)N1CC(O)([C@@H]2CCCCN2)C1` , report CTG-3D luminescence at 96 h. 1.64

Identify measured CTG-3D luminescence at 96 h associated with `Nc1ccn([C@@H]2O[C@H](CO)[C@@H](O)C2(F)F)c(=O)n1` 1.64

---

Tested on: HCI-024
PROTOCOL: CTG-3D luminescence at 96 h relative to day-0 seeding control (ratio to day 0); higher = more growth / less cytotoxicity; PDxO 3D drug screen, 96 h, CTG-3D normalised to day-0 seeding control.
COND: 0.00025 µM; days in culture: 122
List of CTG-3D luminescence at 96 h values.

| MOLECULE | CTG-3D luminescence at 96 h |
| --- | --- |
| CCN1CCN(Cc2ccc(Nc3ncc(F)c(-c4cc(F)c5nc(C)n(C(C)C)c5c4)n3)nc2)CC1 [abemaciclib] | 2.43 |
| COc1cc2c(Oc3ccc4[nH]c(C)cc4c3F)ncnc2cc1OCCCN1CCCC1 [cediranib] | 1.9 |

Continue with the molecule presented below.
Determine from records and report CTG-3D luminescence at 96 h for NC(=O)c1cccc2cn(-c3ccc([C@@H]4CCCNC4)cc3)nc12 [niraparib] 2.38

---

Test system: HCI-012 (organoid from a breast cancer xenograft)
PROTOCOL: CTG-3D luminescence at 96 h relative to day-0 seeding control (ratio to day 0); higher = more growth / less cytotoxicity; PDxO 3D drug screen, 96 h, CTG-3D normalised to day-0 seeding control.
COND: 0.00025 µM; days in culture: 143
EXPERIMENTAL ENDPOINT: CTG-3D luminescence at 96 h
Give your answer as a number; write no unit.

| COMPOUND STRUCTURE | EXPERIMENTAL ENDPOINT | MEASUREMENT |
| --- | --- | --- |
| CC(C)n1nc(-c2ccc3oc(N)nc3c2)c2c(N)ncnc21 | CTG-3D luminescence at 96 h | 2.13 |
| C=CC(=O)N1CCC[C@@H](n2nc(-c3ccc(Oc4ccccc4)cc3)c3c(N)ncnc32)C1 | CTG-3D luminescence at 96 h | 2 |

Below: the item to evaluate.
Tell me its CTG-3D luminescence at 96 h given `CCc1c2c(nc3ccc(O)cc13)-c1cc3c(c(=O)n1C2)COC(=O)[C@]3(O)CC` as the entry. 2.16

---

System: HCI-019 (organoid from a triple-negative breast cancer xenograft)
PROTOCOL: CTG-3D luminescence at 96 h relative to day-0 seeding control (ratio to day 0); higher = more growth / less cytotoxicity; PDxO 3D drug screen, 96 h, CTG-3D normalised to day-0 seeding control.
COND: 0.00025 µM; days in culture: 131
// reported CTG-3D luminescence at 96 h per item
// no unit string in output, number only

Example molecules with recorded CTG-3D luminescence at 96 h:
| COMPOUND STRUCTURE | EXPERIMENTAL ENDPOINT | MEASUREMENT |
| --- | --- | --- |
| C[C@@H]1COCCN1c1cc(C2([S@](C)(=N)=O)CC2)nc(-c2cc[nH]c3nccc2-3)n1 | CTG-3D luminescence at 96 h | 3.35 |
| CCN(c1cc(C#CCN2CCOCC2)cc(C(=O)NCc2c(C)cc(C)[nH]c2=O)c1C)[C@H]1CC[C@H](N(C)CCOC)CC1 | CTG-3D luminescence at 96 h | 3.96 |
| NC(=O)Nc1cc(-c2cccc(F)c2)sc1C(=O)N[C@H]1CCCNC1 | CTG-3D luminescence at 96 h | 4.24 |

Now look at this one.
Please give measured CTG-3D luminescence at 96 h of the following entry: `CCc1c2c(nc3ccc(O)cc13)-c1cc3c(c(=O)n1C2)COC(=O)[C@]3(O)CC` 2.79

---

Tested on: HCI-019
PROTOCOL: CTG-3D luminescence at 96 h relative to day-0 seeding control (ratio to day 0); higher = more growth / less cytotoxicity; PDxO 3D drug screen, 96 h, CTG-3D normalised to day-0 seeding control.
COND: 0.00025 µM; days in culture: 152
EXPERIMENTAL ENDPOINT: CTG-3D luminescence at 96 h

| COMPOUND STRUCTURE | CTG-3D luminescence at 96 h |
| --- | --- |
| NC(=O)Nc1cc(-c2cccc(F)c2)sc1C(=O)N[C@H]1CCCNC1 | 2.74 |

Return reported CTG-3D luminescence at 96 h. Input compound: `Nc1ccn([C@@H]2O[C@H](CO)[C@@H](O)C2(F)F)c(=O)n1` 4.1

In one line, give reported CTG-3D luminescence at 96 h of the entry `Cc1nc(-c2cn3c(n2)-c2ccc(-c4cnn(C(C)(C)C(N)=O)c4)cc2OCC3)n(C(C)C)n1` . 2.42

---

System: HCI-010
PROTOCOL: CTG-3D luminescence at 96 h relative to day-0 seeding control (ratio to day 0); higher = more growth / less cytotoxicity; PDxO 3D drug screen, 96 h, CTG-3D normalised to day-0 seeding control.
COND: 10 µM; days in culture: 65
Parameter: CTG-3D luminescence at 96 h. Scope: all listed entries.
Give the value as a plain number.

Here's what some known entries look like.
| COMPOUND STRUCTURE | MEASUREMENT |
| --- | --- |
| CCN(c1cc(C#CCN2CCOCC2)cc(C(=O)NCc2c(C)cc(C)[nH]c2=O)c1C)[C@H]1CC[C@H](N(C)CCOC)CC1 | 1.58 |
| Cc1nc(-c2cn3c(n2)-c2ccc(-c4cnn(C(C)(C)C(N)=O)c4)cc2OCC3)n(C(C)C)n1 | 0.457 |

Specify CTG-3D luminescence at 96 h for `NC(=O)Nc1cc(-c2cccc(F)c2)sc1C(=O)N[C@H]1CCCNC1` , system HCI-010. 0.219

Specify the recorded CTG-3D luminescence at 96 h for `CC1(C)CCC(c2ccc(Cl)cc2)=C(CN2CCN(c3ccc(C(=O)NS(=O)(=O)c4ccc(N[C@H](CCN5CCOCC5)CSc5ccccc5)c(S(=O)(=O)C(F)(F)F)c4)cc3)CC2)C1` , system: HCI-010. 0.0135

---

Tested on: HCI-015 (organoid from a triple-negative breast cancer xenograft)
PROTOCOL: CTG-3D luminescence at 96 h relative to day-0 seeding control (ratio to day 0); higher = more growth / less cytotoxicity; PDxO 3D drug screen, 96 h, CTG-3D normalised to day-0 seeding control.
COND: 10 µM; days in culture: 218
We use 0.5 as the dividing line for CTG-3D luminescence at 96 h: on or above the line is rule met, below is rule not met.

Observe how each entry below is paired with its result.
| MOLECULE | STUDY SYSTEM | CLASSIFICATION |
| --- | --- | --- |
| Nc1ccn([C@@H]2O[C@H](CO)[C@@H](O)C2(F)F)c(=O)n1 [gemcitabine] | HCI-015 | rule not met |
| Cc1cc(Nc2ncc(Cl)c(Nc3ccccc3S(=O)(=O)C(C)C)n2)c(OC(C)C)cc1C1CCNCC1 [ceritinib] | HCI-015 | rule not met |
| CC(C)(C(=O)NCC(F)(F)C(F)(F)F)C(=O)N[C@@H]1C(=O)Nc2ccccc2-c2ccccc21 | HCI-015 | rule met |
| Cc1cc(Nc2ncnc3ccc(NC4=NC(C)(C)CO4)cc23)ccc1Oc1ccn2ncnc2c1 [tucatinib] | HCI-015 | rule met |

Does CTG-3D luminescence at 96 h meet or surpass 0.5 for CC(=O)O[C@H]1C(=O)[C@@]2(C)[C@H]([C@H](OC(=O)c3ccccc3)[C@]3(O)C[C@H](OC(=O)[C@H](O)[C@@H](NC(=O)c4ccccc4)c4ccccc4)C(C)=C1C3(C)C)[C@]1(OC(C)=O)CO[C@@H]1C[C@@H]2O [paclitaxel] ? rule not met

Reference for the values: the supplement of paper PMC8882468
